Molecular target: T1, human DR3 (full length, on cells) (human, UniProt Q93038 25-417)
T1 sequence: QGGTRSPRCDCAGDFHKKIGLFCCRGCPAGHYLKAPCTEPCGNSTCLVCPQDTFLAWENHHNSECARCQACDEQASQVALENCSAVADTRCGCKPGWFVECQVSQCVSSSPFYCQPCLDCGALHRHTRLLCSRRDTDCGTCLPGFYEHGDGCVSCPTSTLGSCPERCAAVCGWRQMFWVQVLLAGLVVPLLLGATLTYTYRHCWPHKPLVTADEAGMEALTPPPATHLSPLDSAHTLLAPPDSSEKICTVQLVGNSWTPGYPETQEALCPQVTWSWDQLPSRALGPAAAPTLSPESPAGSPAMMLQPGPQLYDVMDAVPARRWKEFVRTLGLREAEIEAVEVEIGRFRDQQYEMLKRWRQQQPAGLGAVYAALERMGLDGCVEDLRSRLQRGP
Assay: cell-based or functional assay
measured attribute: max % inhibition of TNFalpha, donor 1 (%)
# output: bare number, implied unit %

Examples from the recorded data:
# binder, uom, max % inhibition of TNFalpha, donor 1
rows = [
    ("0122 (chimeric Fab of 27F16, human IgG4 constant domain, hinge Cys->Ser) (Fab, V domains shown, murine variable domains, human IgG4 constant domain (IgG4-Ser), human kappa) VH: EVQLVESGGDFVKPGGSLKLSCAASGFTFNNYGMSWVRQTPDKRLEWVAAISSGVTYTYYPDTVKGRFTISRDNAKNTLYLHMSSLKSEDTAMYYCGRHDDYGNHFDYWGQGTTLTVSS VL: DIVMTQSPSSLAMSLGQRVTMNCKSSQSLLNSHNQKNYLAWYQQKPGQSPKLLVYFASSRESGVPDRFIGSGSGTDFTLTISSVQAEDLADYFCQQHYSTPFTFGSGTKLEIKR", "%", 3.9),
    ("0152 (chimeric Fab of 50F191, human IgG4 constant domain, hinge Cys->Ser) (Fab, V domains shown, IgG4-Ser, chimeric) VH: EVQLVESGGGLVEPGGSLKLSCAASGFTFSTYAMSWVRQSPEKRLEWVAEISSGDSYTYYPDIVTGRFTISRDDAKNTLFLEMSSLRSEDTAIYYCVRDQDYRYDGYYAMDHWGQGTSVTVSS VL: DIVLTQSPASLAVSLGQRATISCRASESVEHYGTSLMQWYQQKPGQPPKLLIYAASNVESGVPARFSGRGSGPDFSLNIHPVEEDDIAMYFCQQSRRIPWTFGGGTKLEIKR", "%", 73.5),
    ("0228 (humanized Fab of 27F44, IgG4, hz0072VH S49A / hz0072VL) (Fab, V domains shown, IgG4-Cys, hz (humanized IgG4 Fab with the hinge cysteine kept)) VH: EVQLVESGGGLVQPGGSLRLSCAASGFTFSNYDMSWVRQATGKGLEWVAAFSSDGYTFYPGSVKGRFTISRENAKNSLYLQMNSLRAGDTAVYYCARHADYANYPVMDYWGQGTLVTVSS VL: DIQMTQSPSSLSASVGDRVTITCRASKSVSTSGYSYMHWYQQKPGKAPKLLIYLASNLESGVPSRFSGSGSGTDFTLTISSLQPEDFATYYCQHSRELPLTFGGGTKVEIKR", "%", 92.2),
    ("0130 (recombinant murine Fab of 45F36) (Fab, V domains shown, murine Fab; also called 00130) VH: EVQLVESGGGLVKPGGSLKLSCAASGFTFSSYAMSWVRQSPDKRLEWVAEISSGDTYTYYPDTVTGRFTISRDNAKKTLYLEMSGLRSEDTAMYYCARDREAYYGQQYVMDYWGQGTSVTVSS VL: DIVLTQSPASLAVSLGLSVTISCRASESIEYSGTSFLQWYQQKPGQPPRLLIYGSSTVESGVPARFSGSGSGTDFSLNIHPVEEDDSAMYFCQQSRRLPWTFGGGTKLEIKR", "%", 84.4),
]

Let us examine a further case.
Give max % inhibition of TNFalpha, donor 1 for the following binder: 0148 (chimeric Fab of 5F13, human IgG4 constant domain, hinge Cys->Ser) (Fab, V domains shown, IgG4-Ser, chimeric) VH: EVQLVESGGGLVKPGGSLKFSCAVSGFTFSSYVMSWVRQTPEKRLEWVAAISSDSTYTYYLDSVKGRFTISRDNAKNTLYLQMSSLRSEDTAMYYCARQTRSDAMDYWGQGTSVTVSS VL: DIVLTQSPASLAVSLGQRATISCRASESVDNYGNSFMHWYQQKPGQPPKLLIYRASNLESGIPARFSGSGSRTDFTLTINPVEADDVAIYYCQQSNEDPLTFGAGTKLELKR
9.5
